- Tested on: T-47D breast
- Assay Info: NCI-60 one-dose screen, 48 h
- Study Conditions: 10 µM unless noted
This is part of a sample that, as a whole, favours compounds with a hit. Of some 83,000 tested, about 20% had one in any assay. Calls of active or inactive are those of the source. How the source made its calls: active means growth percent below 10; inactive means the rest.
Choose one outcome from this list and give only that: True for active, False for inactive

c1ccc2sc(SSN3CC4CCC(CC4)C3)nc2c1 = False
Fc1ccc(NCCS)cc1 = False
CCOc1ccc(Nc2nc3c(s2)C(=O)c2ccccc2C3=O)cc1 = False

Query: recorded result category for O=C(c1ccccc1)c1cc2ccccc2oc1=O in this test
False

Query: recorded result category for CCOC(=O)c1cc(CC)sc1NC(=O)CC(C)=O in this test
False

Query: recorded result category for CCCc1cc(=O)oc2c3c(c4c(c12)OC(C)(C)CC4)OC(C)[C@H](C)[C@@H]3O (some centres not stated) in this test
False

Query: recorded result category for Oc1ccc2c(c1)CCc1ccccc1-2 in this test
False

Query: recorded result category for C/C(=N\NC(=S)N1CC2CCC(CC2)C1)c1ccccn1 in this test
False

###

- Tested on: U251 CNS
- Assay Info: NCI-60 one-dose screen, 48 h (100 = growth as untreated, 0 = no growth, -100 = all killed)
- Study Conditions: 10 µM unless noted
Compounds without any hit were thinned out: in the full panel of roughly 83,000, 20% have a hit.
Metric Name: growth (%)
One number for each entry, in %.

In the examples that follow, each entry is paired with its recorded growth.
O=[N+]([O-])c1ccc(C(Br)c2ccc([N+](=O)[O-])cc2)cc1 = 88.6
Cc1cc(I)nc2ccccc12 = 110

Your task in this section: give growth for each listed record.
1. CCOc1ccc2c(c1)/C(=C\C=C\C1CC(C)C3CC(OCC)CCC3N1CC)CC(C)N2CC (stereo unspecified)
2. Oc1c(C(Nc2ccccc2)c2ccccc2)ccc2cccnc12 (stereo unspecified)

1: 6.59; 2: 25.7

Your task in this section: give growth for each listed record.
1. CC(C)Nc1ccc(Nc2ccc(NC(C)C)cc2)cc1
2. CC(=O)c1c(O)c(C)c(O)c2c1OC1=CC(=O)C(C(C)=O)C(=O)C12C (stereo unspecified)

1: 16.9; 2: 74.9

###

- Test system: NCI-H226 lung
- Assay Info: NCI-60 one-dose screen, 48 h
- Study Conditions: 10 µM unless noted
About 83,000 compounds went through this panel and 20% of them were active in at least one assay; those are over-represented in the sample as a whole. The source made the active and inactive calls. Rule for the calls: active = growth percent below 10; inactive = the rest.
Choose one outcome from this list and give only that: yes = active, no = inactive

The examples below pair each entry with its known result.
CCCCCCCCCCCCNCCCc1ccccc1 = no
CCCN(CCC)C(=O)c1ccc(C)cc1 = no
CCC(=O)c1cc([N+](=O)[O-])c(Br)s1 = no
O=C(c1ccccc1)C(Br)[N+](=O)[O-] (stereo not given) = no
NC(=S)Nc1ccc2c(c1)Cc1ccccc1-2 = no

Query: recorded result category for S=C(S)OCN1CCOCC1 in this test
no

Query: recorded result category for CN(C)CCN(C)CC(C)(C)C(=O)/C=C/c1ccc(Cl)c(Cl)c1 in this test
yes

Query: recorded result category for Oc1ccc2ccccc2c1N=Nc1ccccn1 in this test
no

Query: recorded result category for N#C/C(=N\Nc1ccc(Cl)cc1)C(=O)C1CC1 in this test
no

Query: recorded result category for N#Cc1c2ccccc2nc2ccccc12 in this test
no

Query: recorded result category for CC1CC(C)(C)OB(OC(C)CC(C)(C)OB2OC(C)CC(C)(C)O2)O1 (stereo not given) in this test
no

Query: recorded result category for CCCCCCCCc1cc(Cl)c(O)c(Cl)c1 in this test
no
